// provenance: patent US20040033899A1

Quantity measured: melting point

Known results for compounds:
1. Cc1c(C(=O)c2cnn(C(C)C)c2O)ccc2sc(=O)n(Cc3ccccc3)c12; 142 to 144 °C
2. COc1cccc(Cn2c(=O)sc3ccc(C(=O)c4cnn(C)c4O)c(C)c32)c1; 79 to 89 °C
3. Cc1c(C(=O)c2cnn(C(C)C)c2O)ccc2sc(=O)n(CC3OCCO3)c12; 54 to 58 °C
4. CC#CCn1c(=O)sc2ccc(C(=O)c3cnn(C(C)C)c3O)c(C)c21; 54 to 60 °C
5. Cc1c(C(=O)c2cnn(C)c2O)ccc2sc(=O)n(Cc3ccccc3)c12; 65 to 71 °C
6. CC#CCn1c(=O)sc2ccc(C(=O)c3cnn(C)c3O)c(C)c21; 140 to 147 °C
7. Cc1c(C(=O)c2cnn(C)c2O)ccc2oc(=O)n(CC(C)C)c12; 150 to 151 °C
8. C=CCn1c(=O)oc2ccc(C(=O)c3cnn(C)c3O)c(C)c21; 127 to 129 °C

API: the following record is the query input.
Which melting point is listed for "CCCn1c(=O)oc2ccc(C(=O)c3cnn(C(C)C)c3O)c(C)c21" ?
104 to 105 °C

###

Quantity measured: melting point

1) Cc1c(C(=O)c2cnn(C(C)C)c2OCc2ccccc2)ccc2sc(=O)n(CC3OCCO3)c12; 133 to 134 °C
2) Cc1c(C(=O)c2cnn(C)c2OCc2ccccc2)ccc2sc(=O)n(Cc3ccccc3)c12; 150 to 151 °C

For the next question, use this compound.
Return reported melting point; argument: "CCCCCn1c(=O)sc2ccc(C(=O)c3cnn(C(C)C)c3O)c(C)c21"
105 to 107 °C
